Test system: MELK
ASSAY READOUT: Kd

stdin: // map "O=C(Nc1ccc2c(c1)OCO2)NC1CCN(c2ccnc(NCc3ccc(F)cc3)n2)CC1" to recorded Kd (system: MELK);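 also: kd values determined as follow-up on hits from a single-replicate KINOMEscan panel screen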
stdout: > 10 µM

====

Tested on: TNIK
Settings: concentration: 1 μM, replicates: in singlicate; n = 1
ASSAY READOUT: %Inh (%)
One number for each entry, in %.

- COMPOUND: "Cc1nn2c(=O)cc(N3CCOCC3)nc2n1Cc1cccc(Cl)c1Cl"
  READOUT VALUE: 0
- COMPOUND: "OCCCNc1nccc(-c2c(-c3cccc(C(F)(F)F)c3)nn3cc(C(F)(F)F)ccc23)n1"
  READOUT VALUE: 3
- COMPOUND: "Nc1ncnc2c1ncn2-c1cccc2ccccc12"
  READOUT VALUE: 10
- COMPOUND: "CN(C)c1cc(-c2ccc3c(N)n[nH]c3c2)nc(N)n1"
  READOUT VALUE: 0

Let us move to another entry and its %Inh.
stdin: Request the reported %Inh associated with COc1cc(Nc2nccc(N3CCC(NC(=O)C(C)c4ccc(Cl)cc4)C3)n2)cc(OC)c1OC (centres unmarked)
stdout: 0

====

System: CSK
Conditions: concentration: 1 μM, replicates: in singlicate; n = 1
Kindly supply the reported %Inh values for the records listed here.
Answers are plain numbers, in %.

Known results for compounds:
- COMPOUND: "CCC(=O)c1c(-c2ccccc2)c2cc(Cl)ccc2c(=O)n1Cc1cc(C(=O)NC2CC2)n(C)n1"
  OUTPUT UNIT: "%"
  READOUT VALUE: 0
- COMPOUND: "COc1cc(Nc2nccc(N3CCC(NC(=O)C(C)c4ccc(Cl)cc4)C3)n2)cc(OC)c1OC (stereo not drawn)"
  OUTPUT UNIT: "%"
  READOUT VALUE: 0
- COMPOUND: "Cc1nnc(-c2ccc(C)c(-c3ccc(C(=O)O)cc3)c2)o1"
  OUTPUT UNIT: "%"
  READOUT VALUE: 0
- COMPOUND: "COc1cc2ncn(-c3cc(OCCCc4ccccc4)c(C(N)=O)s3)c2cc1OC"
  OUTPUT UNIT: "%"
  READOUT VALUE: 0
- COMPOUND: "O=C(NCCNc1ccnc(Nc2ccc(F)cc2)n1)Nc1ccc2c(c1)OCO2"
  OUTPUT UNIT: "%"
  READOUT VALUE: 2

I have 3 compounds here; please give me %Inh for each one.
1. CCS(=O)c1ccc(-c2coc3ccc(-c4nnc(C)o4)cc23)cc1 (stereo not drawn)
2. Nc1nc(-c2ccccc2F)c(-c2ccnc3ccccc23)s1
3. Nc1n[nH]c2ncc(-c3ccccc3)cc12

stdout:
1. 19
2. 0
3. 0

stdin: Request the reported %Inh associated with "Cc1c(Cn2c(C)nn3c(=O)cc(N4CCO[C@H](C)C4)nc23)cccc1C(F)(F)F"
stdout: 0

====

Test system: PAK6
Conditions: concentration: 1 μM, replicates: in singlicate; n = 1
ASSAY READOUT: %Inh (%)
Give bare numbers, in %.

- STRUCTURE AS SMILES: "COC(=O)c1c(-c2ccccc2)c2cc(Br)ccc2c(=O)n1Cc1ccc(NC(=O)CCC(=O)O)cc1"
  %Inh, %: 18

I have 5 compounds here; please give me %Inh for each one.
1. Nc1nc(-c2ccccc2F)c(-c2ccnc3ccccc23)s1
2. Nc1n[nH]c2ncc(-c3ccccc3)cc12
3. Nc1nc(N)c2nc(-c3ccccc3)[nH]c2n1
4. Cl.NS(=O)(=O)c1cccc(Nc2cc(-c3ccc(F)cc3)n[nH]2)c1
5. OCCCNc1nccc(-c2c(-c3cccc(C(F)(F)F)c3)nn3cc(C(F)(F)F)ccc23)n1

stdout:
0
0
0
4
0

====

Kindly supply the reported %Inh values for the records listed here.
Tested on: MEK1
Construct: gene MAP2K1
Settings: concentration: 1 μM, replicates: in singlicate; n = 1
Give bare numbers, in %.

Known results for compounds:
- STRUCTURE AS SMILES: "Cc1ccc(Oc2ccc(Nc3ncnc4cc[nH]c34)cc2C)cn1"
  %Inh (%): 37
- STRUCTURE AS SMILES: "O=C(NCCNc1ccnc(Nc2ccc(F)cc2)n1)Nc1ccc2c(c1)OCO2"
  %Inh (%): 9

I have 3 compounds here; please give me %Inh for each one.
1. O=C(Nc1n[nH]c2nc(-c3ccccc3)c(Cl)cc12)C1CC1
2. CCS(=O)(=O)c1ccc(OC)c(Nc2ncc(-c3ccc(F)cc3)o2)c1.Cl
3. Cc1cccc(-c2nc(Nc3ccc4c(cnn4C)c3)c3ccccc3n2)n1

stdout:
[11, 0, 0]

====

Kindly supply the reported %Inh values for the records listed here.
Test system: SRPK2
Settings: concentration: 1 μM, replicates: in singlicate; n = 1
Numbers only, in %.

Known results for compounds:
- COMPOUND: "Cc1nn2c(=O)cc(N3CCOCC3)nc2n1Cc1cccc(Cl)c1Cl [GSK2342769]"
  OUTPUT UNIT: "%"
  READOUT VALUE: 0
- COMPOUND: "C[C@@H]1CC[C@H](C(=O)NC2CCCCC2)CN1c1cc(-c2ccc3c(N)n[nH]c3c2)nc(N)n1 [GSK2291363]"
  OUTPUT UNIT: "%"
  READOUT VALUE: 5
- COMPOUND: "Nc1n[nH]c2nnc(-c3ccccc3)c(-c3ccccc3)c12 [GW554060]"
  OUTPUT UNIT: "%"
  READOUT VALUE: 0

I have 4 compounds here; please give me %Inh for each one.
1. COc1cc2nccc(Nc3ccc(OCc4ccc(NC(C)=O)cc4)cc3)c2cc1OC.Cl [GW440135]
2. CCS(=O)(=O)c1ccc(OC)c(Nc2ncc(-c3ccc(F)cc3)o2)c1.Cl [GW591947]
3. O=C(Nc1n[nH]c2nc(-c3ccccc3)c(Br)cc12)C1CC1 [SB-708998]
4. CC(C)(C)c1ccc(C(=O)Nc2cn3cc(-c4ccccc4)ccc3n2)cc1

stdout:
[12, 0, 0, 3]

I have 4 compounds here; please give me %Inh for each one.
1. O=C(Nc1n[nH]c2nc(-c3ccccc3)c(Cl)cc12)C1CC1 [SB-734909]
2. CCC(=O)c1c(-c2ccccc2)c2cc(Cl)ccc2c(=O)n1Cc1cc(S(C)(=O)=O)n(CCC(C)(C)O)n1
3. CCS(=O)c1ccc(-c2coc3ccc(-c4nnc(C)o4)cc23)cc1 (stereo not drawn)
4. Nc1ncnc2c1ncn2-c1cccc2ccccc12 [SKF-97184]

stdout:
1: 27; 2: 53; 3: 0; 4: 32

I have 3 compounds here; please give me %Inh for each one.
1. Cl.c1ccc(Cn2cnc3cc(Nc4ncnc5ccccc45)ccc32)cc1 [GW272142]
2. COc1cc2ncn(-c3cc(OCc4ccncc4Br)c(C(N)=O)s3)c2cc1OC [GW854278]
3. CCC(=O)c1c(-c2ccccc2)c2cc(Cl)ccc2c(=O)n1Cc1ccc(C(=O)O)cc1

stdout:
[0, 0, 10]

I have 4 compounds here; please give me %Inh for each one.
1. Nc1nc(-c2ccccc2F)c(-c2ccnc3ccccc23)s1 [GW560459]
2. Cc1cccc(-c2cc(-c3c[nH]nc3-c3ccccn3)ccn2)c1 [GW679395]
3. OCCCNc1nccc(-c2c(-c3cccc(C(F)(F)F)c3)nn3cc(C(F)(F)F)ccc23)n1 [GW630813]
4. CCC(=O)c1c(-c2ccccc2)c2cc(Cl)ccc2c(=O)n1Cc1cc(S(C)(=O)=O)n(CC(F)F)n1

stdout:
0
0
2
2

====

Tested on: NEK4
Conditions: concentration: 1 μM, replicates: in singlicate; n = 1
Kindly supply the reported %Inh values for the records listed here.
Answers are plain numbers, in %.

- STRUCTURE AS SMILES: "FC(F)(F)c1ccc(-c2ncn(CCCN3CCOCC3)c2-c2ccncc2)cc1"
  %Inh [%]: 0
- STRUCTURE AS SMILES: "Nc1nc(-c2ccccc2F)c(-c2ccnc3ccccc23)s1"
  %Inh [%]: 0
- STRUCTURE AS SMILES: "O=C(Nc1n[nH]c2nc(-c3ccccc3)c(Br)cc12)C1CC1"
  %Inh [%]: 3
- STRUCTURE AS SMILES: "COc1cc2ncn(-c3cc(OCc4ccncc4)c(C(N)=O)s3)c2cc1OC"
  %Inh [%]: 0
- STRUCTURE AS SMILES: "CCc1nc(-c2cccc(C)c2)c(-c2ccncc2)s1"
  %Inh [%]: 0

I have 3 molecules here; please give me %Inh for each one.
1. COc1cccc(C2=C(Nc3cccc(C(=O)O)c3)C(=O)NC2=O)c1
2. CCC(=O)c1c(-c2ccccc2)c2cc(Cl)ccc2c(=O)n1Cc1cc(S(C)(=O)=O)n(CCC(C)(C)O)n1
3. Cc1nnc(-c2ccc(C)c(-c3ccc(C(=O)O)cc3)c2)o1

stdout:
1: 0; 2: 0; 3: 14

stdin: Request the reported %Inh associated with "COc1ccc(-c2cc3c(C)nc(N)nc3n([C@H]3CC[C@H](O)CC3)c2=O)cn1"
stdout: 0
